These data points were gathered from the supplement of paper PMC9170038.

Measured apparent KD of MS2 coat protein accompanies every entry in the list below.
- Tested on: MS2 coat protein
- MEASUREMENT_DESCRIPTION: apparent KD of MS2 coat protein; higher = weaker reporter binding
- EXPERIMENTAL_PARAMETERS: Eterna round: R107; input ligand: theophylline 2 mM
Express it in nM; write the number only.

ENTRY_SEQUENCE | MEASUREMENT_NAME | U | OBSERVED
GGCGUCGGGCGAAGGAGCGUGAAGACAUGAGGAUCACCCAUGUAGAGGCCCGAACAGGGUUCGCAGGUAGGUCGCGCGCGGUGCC [#1 Same State - Arginine B Attempt #6 (HarryS)] | apparent KD of MS2 coat protein | nM | 21.4
GUUAUAUACUCGGCCGCCACUGAGAGAGUCAUGUAAACAUGAGGAUCACCCAUGUAAUAUAUAUACAGGACCGGGAGUAUGGUAA [4.E] | apparent KD of MS2 coat protein | nM | 14
CAAUCUACCACCGGCCUACUGUACACUCGCCGAGGACCGGUACGGCCGCCACUCGACGUUCGACAUGAGGAUCACCCAUGUGGGU [theeternabot_exclusion_MS2_Trp_A_14] | apparent KD of MS2 coat protein | nM | 289
CCUUAAUAUAGAAGGAGCGCGCUAACAUGAGGAUCACCCAUGUAAAGGGUUUUUGGCUUAGCGCAGGUAGGUCGCUAUAAGAACC [Arg B Ex t1] | apparent KD of MS2 coat protein | nM | 131
AUACAUGAGGAUCACCCAUGUUAUAGUGAAGGAGCGACAUUUAGGUCAGGUAGGUCGCACUAUUGAAUUAUUAUCCUCUUUUCUU [JR_ExcArginiA_Sub021] | apparent KD of MS2 coat protein | nM | 23.7

We next turn to a different sequence, shown below.
Recorded apparent KD of MS2 coat protein for GGUCUCUGGAGCGAUACCAGCUUAAAUGUACUGGCCAGGUACAUGAGGAUCACCCAUGUAAGCCCUUGGCAGCGCUCCAGAGACC [#1 Exclusion - Theophylline B Attempt #13 (HarryS)] , please?
39.2

###

- System: MS2 coat protein
- MEASUREMENT_DESCRIPTION: apparent KD of MS2 coat protein, switch ON state; designed switch direction (-1 OFF switch, 1 ON switch): 1; higher = weaker reporter binding
- EXPERIMENTAL_PARAMETERS: FMN input: 0 or 200 uM; Eterna round: R93 (includes R88 designs)
MEASUREMENT_NAME: apparent KD of MS2 coat protein (µM)
Express it in µM; write the number only.

# count of solved cases: 3
ENTRY_SEQUENCE | SYSTEM_NAME | apparent KD of MS2 coat protein, µM
AAAAAACAUGAGGAUCACCCAUGUGACAACAUGGGAGGAUAUACGAAGACGAGAGUCGAAGUAGAAGGCCUAAAAG [Garnet 78] | MS2 coat protein | 0.117
AAAAAAAAAGUAGAGGAUAUCCAAAUGGCUACAUGAGGAUCACCCAUGUGAAGAAAAGCACAUGAGGAGAAGGCUACAAAAAAAAA [Blender bender] | MS2 coat protein | 0.0121
ACCCGCAGCCGUCAGGAUAUGUUCGCGUCAACAUGAGGAUCACCCAUGUGUGACAAGAAGUACACGCAGAAGGGAUCAAUGCGGG [Bienri] | MS2 coat protein | 0.0137

We next turn to a different sequence, shown below.
Recorded apparent KD of MS2 coat protein for AAGAAACAUGAGGAUCACCCAUGUACCCAAAACGGAGGAUAUGGGAAAGAAAGAAAGAAACCAGAAGGCCGAUGAA [Amyrtaeus] , please?
0.0259
